Tested on: Rattus norvegicus
assayText: Antiinflammatory activity in albino rat assessed as inhibition of carrageenan-induced paw edema at 100 mg/kg, po administered 30 mins prior to challenge measured after 4 hrs relative to untreated control
Format: functional
readoutName: inhibition in vivo at 100 mg/kg (%)
Give just the numeric value; % need not be written.

Documented inhibition in vivo at 100 mg/kg of C/C(=N/O)c1ccc(OCC(=O)Nc2ccc(C(=O)/C=C/c3ccco3)cc2)cc1 : 48

// inhibition in vivo at 100 mg/kg lookup, molecule = CC(O[N+](=O)[O-])C(=O)Nc1ccc(C(=O)/C=C/c2ccco2)cc1 (stereo not given) , result: 49

# molecule COc1ccc(/C=C/C(=O)c2ccc(NC(=O)CO[N+](=O)[O-])cc2)cc1 ; its inhibition in vivo at 100 mg/kg = 51
